Consider the following molecules and their measured Fold change in IC50 (IC50 [Drug + Cobicistat]/IC50 [Drug]) readings.
Test system: Daoy
Test: Cell proliferation assay (ATPlite), drug with vs without cobicistat
Assay type: cell-based
Conditions: Daoy cell line; 120 hours incubation
measured-property: Fold change in IC50 (IC50 [Drug + Cobicistat]/IC50 [Drug]) (fold)

molecule	value-measured
CC[C@]1(O)C[C@H]2CN(CCc3c([nH]c4ccccc34)[C@@](C(=O)OC)(c3cc4c(cc3OC)N(C=O)[C@H]3[C@@](O)(C(=O)OC)[C@H](OC(C)=O)[C@]5(CC)C=CCN6CC[C@]43[C@@H]65)C2)C1 [vincristine]	4.6
CC[C@]1(O)C[C@@H]2CN(CCc3c([nH]c4ccccc34)[C@@](C(=O)OC)(c3cc4c(cc3OC)N(C)[C@H]3[C@@](O)(C(=O)OC)[C@H](OC(C)=O)[C@]5(CC)C=CCN6CC[C@]43[C@@H]65)C2)C1 [vinblastine]	5.7
CC(=O)O[C@@]12CO[C@@H]1C[C@H](O)[C@@]1(C)C(=O)[C@H](O)C3=C(C)[C@@H](OC(=O)[C@H](O)[C@@H](NC(=O)OC(C)(C)C)c4ccccc4)C[C@@](O)([C@@H](OC(=O)c4ccccc4)[C@H]21)C3(C)C [docetaxel]	6.4
CC(=O)O[C@H]1C(=O)[C@@]2(C)[C@H]([C@H](OC(=O)c3ccccc3)[C@]3(O)C[C@H](OC(=O)[C@H](O)[C@@H](NC(=O)c4ccccc4)c4ccccc4)C(C)=C1C3(C)C)[C@]1(OC(C)=O)CO[C@@H]1C[C@@H]2O [paclitaxel]	3.4
Cc1nc(Nc2ncc(C(=O)Nc3c(C)cccc3Cl)s2)cc(N2CCN(CCO)CC2)n1 [dasatinib]	3.2
COc1cccc2c1C(=O)c1c(O)c3c(c(O)c1C2=O)C[C@@](O)(C(=O)CO)C[C@@H]3O[C@H]1C[C@H](N)[C@H](O)[C@H](C)O1 [doxorubicin]	1.6

====

Consider the following compounds and their measured Fold change in IC50 (IC50 [Drug + Cobicistat]/IC50 [Drug]) readings.
Test system: J82
Test: Cell proliferation assay (ATPlite), drug with vs without cobicistat
Assay type: cell-based
Details: J82 cell line; 120 hours incubation
measured-property: Fold change in IC50 (IC50 [Drug + Cobicistat]/IC50 [Drug]) (fold)

mol-smiles	value-measured
Cc1nc(Nc2ncc(C(=O)Nc3c(C)cccc3Cl)s2)cc(N2CCN(CCO)CC2)n1	2.1
CC[C@]1(O)C[C@@H]2CN(CCc3c([nH]c4ccccc34)[C@@](C(=O)OC)(c3cc4c(cc3OC)N(C)[C@H]3[C@@](O)(C(=O)OC)[C@H](OC(C)=O)[C@]5(CC)C=CCN6CC[C@]43[C@@H]65)C2)C1	4.2
CC(=O)O[C@@]12CO[C@@H]1C[C@H](O)[C@@]1(C)C(=O)[C@H](O)C3=C(C)[C@@H](OC(=O)[C@H](O)[C@@H](NC(=O)OC(C)(C)C)c4ccccc4)C[C@@](O)([C@@H](OC(=O)c4ccccc4)[C@H]21)C3(C)C	3.5
CC(=O)O[C@H]1C(=O)[C@@]2(C)[C@H]([C@H](OC(=O)c3ccccc3)[C@]3(O)C[C@H](OC(=O)[C@H](O)[C@@H](NC(=O)c4ccccc4)c4ccccc4)C(C)=C1C3(C)C)[C@]1(OC(C)=O)CO[C@@H]1C[C@@H]2O	2.9
CC[C@]1(O)C[C@H]2CN(CCc3c([nH]c4ccccc34)[C@@](C(=O)OC)(c3cc4c(cc3OC)N(C=O)[C@H]3[C@@](O)(C(=O)OC)[C@H](OC(C)=O)[C@]5(CC)C=CCN6CC[C@]43[C@@H]65)C2)C1	3.6
COc1cccc2c1C(=O)c1c(O)c3c(c(O)c1C2=O)C[C@@](O)(C(=O)CO)C[C@@H]3O[C@H]1C[C@H](N)[C@H](O)[C@H](C)O1	2.2

====

Consider the following compounds and their measured Fold change in IC50 (IC50 [Drug + Cobicistat]/IC50 [Drug]) readings.
Test system: ACHN
Experiment: Cell proliferation assay (ATPlite), drug with vs without cobicistat
Format: cell-based
Details: ACHN cell line; 120 hours incubation
measured-property: Fold change in IC50 (IC50 [Drug + Cobicistat]/IC50 [Drug]) (fold)

compound	unit	value-measured
CC(=O)O[C@H]1C(=O)[C@@]2(C)[C@H]([C@H](OC(=O)c3ccccc3)[C@]3(O)C[C@H](OC(=O)[C@H](O)[C@@H](NC(=O)c4ccccc4)c4ccccc4)C(C)=C1C3(C)C)[C@]1(OC(C)=O)CO[C@@H]1C[C@@H]2O [paclitaxel]	fold	2.5
COc1cccc2c1C(=O)c1c(O)c3c(c(O)c1C2=O)C[C@@](O)(C(=O)CO)C[C@@H]3O[C@H]1C[C@H](N)[C@H](O)[C@H](C)O1 [doxorubicin]	fold	2.2
CC[C@]1(O)C[C@@H]2CN(CCc3c([nH]c4ccccc34)[C@@](C(=O)OC)(c3cc4c(cc3OC)N(C)[C@H]3[C@@](O)(C(=O)OC)[C@H](OC(C)=O)[C@]5(CC)C=CCN6CC[C@]43[C@@H]65)C2)C1 [vinblastine]	fold	3.8
CC[C@]1(O)C[C@H]2CN(CCc3c([nH]c4ccccc34)[C@@](C(=O)OC)(c3cc4c(cc3OC)N(C=O)[C@H]3[C@@](O)(C(=O)OC)[C@H](OC(C)=O)[C@]5(CC)C=CCN6CC[C@]43[C@@H]65)C2)C1 [vincristine]	fold	3.4
Cc1nc(Nc2ncc(C(=O)Nc3c(C)cccc3Cl)s2)cc(N2CCN(CCO)CC2)n1 [dasatinib]	fold	2.8
CC(=O)O[C@@]12CO[C@@H]1C[C@H](O)[C@@]1(C)C(=O)[C@H](O)C3=C(C)[C@@H](OC(=O)[C@H](O)[C@@H](NC(=O)OC(C)(C)C)c4ccccc4)C[C@@](O)([C@@H](OC(=O)c4ccccc4)[C@H]21)C3(C)C [docetaxel]	fold	4.6

====

Consider the following compounds and their measured Fold change in IC50 (IC50 [Drug + Cobicistat]/IC50 [Drug]) readings.
System: VA-ES-BJ
Assay: Cell proliferation assay (ATPlite), drug with vs without cobicistat
Assay type: cell-based
Details: VA-ES-BJ cell line; 120 hours incubation
measured-property: Fold change in IC50 (IC50 [Drug + Cobicistat]/IC50 [Drug]) (fold)

mol-smiles	value-measured
CC[C@]1(O)C[C@@H]2CN(CCc3c([nH]c4ccccc34)[C@@](C(=O)OC)(c3cc4c(cc3OC)N(C)[C@H]3[C@@](O)(C(=O)OC)[C@H](OC(C)=O)[C@]5(CC)C=CCN6CC[C@]43[C@@H]65)C2)C1	4.3
CC[C@]1(O)C[C@H]2CN(CCc3c([nH]c4ccccc34)[C@@](C(=O)OC)(c3cc4c(cc3OC)N(C=O)[C@H]3[C@@](O)(C(=O)OC)[C@H](OC(C)=O)[C@]5(CC)C=CCN6CC[C@]43[C@@H]65)C2)C1	5.4
CC(=O)O[C@@]12CO[C@@H]1C[C@H](O)[C@@]1(C)C(=O)[C@H](O)C3=C(C)[C@@H](OC(=O)[C@H](O)[C@@H](NC(=O)OC(C)(C)C)c4ccccc4)C[C@@](O)([C@@H](OC(=O)c4ccccc4)[C@H]21)C3(C)C	5.0
CC(=O)O[C@H]1C(=O)[C@@]2(C)[C@H]([C@H](OC(=O)c3ccccc3)[C@]3(O)C[C@H](OC(=O)[C@H](O)[C@@H](NC(=O)c4ccccc4)c4ccccc4)C(C)=C1C3(C)C)[C@]1(OC(C)=O)CO[C@@H]1C[C@@H]2O	2.8
COc1cccc2c1C(=O)c1c(O)c3c(c(O)c1C2=O)C[C@@](O)(C(=O)CO)C[C@@H]3O[C@H]1C[C@H](N)[C@H](O)[C@H](C)O1	2.8
Cc1nc(Nc2ncc(C(=O)Nc3c(C)cccc3Cl)s2)cc(N2CCN(CCO)CC2)n1	3.1

====

System: A-704
Test: Cell proliferation assay (ATPlite), drug with vs without cobicistat
Type: cell-based
Details: A-704 cell line; 120 hours incubation
Consider the following compounds and their measured Fold change in IC50 (IC50 [Drug + Cobicistat]/IC50 [Drug]) readings.
measured-property: Fold change in IC50 (IC50 [Drug + Cobicistat]/IC50 [Drug]) (fold)

mol-smiles	target-desc	value-measured
CC(=O)O[C@H]1C(=O)[C@@]2(C)[C@H]([C@H](OC(=O)c3ccccc3)[C@]3(O)C[C@H](OC(=O)[C@H](O)[C@@H](NC(=O)c4ccccc4)c4ccccc4)C(C)=C1C3(C)C)[C@]1(OC(C)=O)CO[C@@H]1C[C@@H]2O	A-704	1.5
CC(=O)O[C@@]12CO[C@@H]1C[C@H](O)[C@@]1(C)C(=O)[C@H](O)C3=C(C)[C@@H](OC(=O)[C@H](O)[C@@H](NC(=O)OC(C)(C)C)c4ccccc4)C[C@@](O)([C@@H](OC(=O)c4ccccc4)[C@H]21)C3(C)C	A-704	2.3
Cc1nc(Nc2ncc(C(=O)Nc3c(C)cccc3Cl)s2)cc(N2CCN(CCO)CC2)n1	A-704	1.0
